The measured values listed here are drawn from patent US11912703B2.

molecular target: human TLR7 (Homo sapiens (Human)); experiment: TLR7 inhibition reporter assay (HEK-Blue SEAP); conditions: HEK-Blue cells overexpressing human TLR7, gardiquimod 7.5 μM stimulation
Sequence (Q9NYK1 27-1049): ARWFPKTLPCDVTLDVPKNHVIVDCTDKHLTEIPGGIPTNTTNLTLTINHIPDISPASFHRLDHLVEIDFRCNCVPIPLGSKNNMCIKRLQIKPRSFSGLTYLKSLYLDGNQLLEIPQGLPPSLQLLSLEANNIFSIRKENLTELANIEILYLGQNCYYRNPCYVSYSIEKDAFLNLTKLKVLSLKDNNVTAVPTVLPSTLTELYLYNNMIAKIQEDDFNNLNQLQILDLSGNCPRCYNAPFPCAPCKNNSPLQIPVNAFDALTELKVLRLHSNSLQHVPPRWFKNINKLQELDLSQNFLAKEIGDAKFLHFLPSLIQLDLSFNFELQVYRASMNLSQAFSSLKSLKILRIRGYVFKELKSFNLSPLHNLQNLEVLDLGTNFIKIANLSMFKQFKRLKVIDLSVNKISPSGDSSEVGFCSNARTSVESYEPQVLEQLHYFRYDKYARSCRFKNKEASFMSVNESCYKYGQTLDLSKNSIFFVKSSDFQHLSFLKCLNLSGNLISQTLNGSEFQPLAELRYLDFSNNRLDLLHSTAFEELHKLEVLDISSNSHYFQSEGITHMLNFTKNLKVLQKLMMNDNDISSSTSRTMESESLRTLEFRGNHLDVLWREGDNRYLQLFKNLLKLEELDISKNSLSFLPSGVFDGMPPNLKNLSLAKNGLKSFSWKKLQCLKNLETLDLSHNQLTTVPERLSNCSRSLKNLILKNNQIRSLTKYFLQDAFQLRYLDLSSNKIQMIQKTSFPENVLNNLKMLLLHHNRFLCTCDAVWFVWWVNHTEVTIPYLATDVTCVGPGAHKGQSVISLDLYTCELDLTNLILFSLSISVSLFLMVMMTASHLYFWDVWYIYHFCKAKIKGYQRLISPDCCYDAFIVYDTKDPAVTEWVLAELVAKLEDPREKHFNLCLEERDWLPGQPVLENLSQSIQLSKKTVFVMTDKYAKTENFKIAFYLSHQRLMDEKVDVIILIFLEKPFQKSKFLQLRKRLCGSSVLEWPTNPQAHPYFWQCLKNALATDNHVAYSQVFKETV
Experimental Endpoint: IC50 (nM)
Give just the number in nM; leave the unit off.

Please review the following examples before continuing.
compound="COc1cc(-c2[nH]c3cnc(C4CCC(NCC5(C)COC5)CC4)c(F)c3c2C(C)C)cn2ncnc12 (stereo not shown) [Example 193]" readout_number=0.84
compound=CNC(=O)CN1CCC(c2ncc3[nH]c(-c4cc(OC)c5ncnn5c4)c(C(C)C)c3c2C)CC1 readout_number=1.6

Lookup: Check the records and state IC50 for `COc1cc(-c2[nH]c3cnc(N4CCNC[C@H]4C)c(F)c3c2C(C)C)cn2ncnc12`
Found: 1.6

Lookup: Check the records and state IC50 for `Cc1c(N2CCC(N3CCC3)CC2)ncc2[nH]c(-c3cc(C)c4ncnn4c3)c(C(C)C)c12`
Found: 0.65
